# protocol: yeast V-ATPase proton pumping modulator potency, dose response, S. cerevisiae, pHLuorin, powder set 1 (AID 602257)
# condition-notes: vacuolar pH, pHLuorin fluorescence; series mostly up to 100 µM
Measured potencies and affinities stand elsewhere. The source made the active and inactive calls. The rule behind the calls is not given here.
quantity-name: outcome

Check out these entries, answers already filled in.
O=C(C1CC1)N1CCN(c2nc3ccc(F)cc3s2)CC1
inactive
Cc1cc(C(=O)N2CCN(c3nc4ccc(F)cc4s3)CC2)no1
inactive
O=C(c1cnccn1)N1CCN(c2nc3ccc(F)cc3s2)CC1
inactive
O=C(c1ccc([N+](=O)[O-])o1)N1CCN(c2nc3ccc(F)cc3s2)CC1
inactive

`Cc1cc(C(=O)N2CCN(c3nc4ccc(F)cc4s3)CC2)nn1C` yielded outcome of inactive

The compound identified as `O=C(c1ccc([N+](=O)[O-])o1)N1CCN(c2ccccn2)CC1` registered its outcome at inactive

// data source = PubChem BioAssay AID602257
